Parameter: growth. Scope: all listed entries.
# Test system: IGROV1 ovarian
# assayProtocol: NCI-60 one-dose screen, 48 h (100 = growth as untreated, 0 = no growth, -100 = all killed)
# conditionDescription: 10 µM unless noted
Compounds without any hit were thinned out: in the full panel of roughly 83,000, 20% have a hit.
Numbers only; they are read as %.

Here is how some compounds turned out for growth.
{"smiles": "Cc1nn2c(-c3nc4cc(Cl)c(Cl)cc4[nH]3)c(-c3ccc(F)cc3)nc2s1", "unitOfMeasurement": "%", "growth": 21.2}
{"smiles": "Cn1cc(-c2nc(-c3c[nH]c4ncccc34)cs2)c2cc(F)ccc21", "unitOfMeasurement": "%", "growth": 26.5}

Here is the next item to consider.
Request: Find the measured growth: item N#C/C(=C\c1ccc(-c2ccc(F)cc2)o1)c1nc(-c2ccco2)cs1 , target or system IGROV1 ovarian.
Result: 60

###

# Test system: M14 melanoma
# assayProtocol: NCI-60 one-dose screen, 48 h
# conditionDescription: 10 µM unless noted
The panel holds about 83,000 compounds, 20% with a hit somewhere; the sample as a whole holds those more often. Activity calls are given as the source filed them. Rule for the calls: active = growth percent below 10; inactive = the rest.
In this exercise, the only acceptable responses are active, inactive

Record excerpt, results attached:
{"compound": "O=C1OC(c2ccc(Cl)c(Cl)c2)=C/C1=C/c1cccc([N+](=O)[O-])c1", "class": "inactive"}
{"compound": "O=Cc1nc2ccccc2[nH]1", "class": "inactive"}
{"compound": "C=C(C)[C@@H]1CC[C@]2(C=NCCCNCCCCNCCCN)CC[C@]3(C)[C@H](CC[C@@H]4[C@@]5(C)CCCNC(C)(C)[C@@H]5CC[C@]43C)[C@@H]12", "class": "inactive"}
{"compound": "CCOc1ccc(NC(=O)c2ccccc2-c2ccccc2C(=O)O)cc1", "class": "inactive"}
{"compound": "Cc1nc([P+](c2ccccc2)(c2ccccc2)c2ccccc2)c(Sc2sc(-c3ccccc3)nc2[P+](c2ccccc2)(c2ccccc2)c2ccccc2)o1", "class": "inactive"}
{"compound": "COc1ccc2[nH]cc(-c3nc(-c4c[nH]c5ncccc45)cs3)c2c1", "class": "inactive"}
{"compound": "O=C(NC(Cc1cn(Cc2ccccc2)cn1)C(=O)O)OCC1c2ccccc2-c2ccccc21 (stereo unspecified)", "class": "inactive"}
{"compound": "CC1(C)C(=O)CC[C@]2(C)[C@H]3C(=O)C=C4[C@@H]5C[C@@](C)(C(=O)NCCNCCN)CC[C@]5(C)CC[C@@]4(C)[C@]3(C)CC[C@@H]12", "class": "inactive"}
{"compound": "NC(=O)NCC1CCCCC1", "class": "inactive"}
{"compound": "N#CC1C(=N)Cc2ccccc2-c2ccccc21 (stereo unspecified)", "class": "inactive"}

Request: Entry C/C(=N\Nc1cc(C)c2ccccc2n1)c1ccccn1 : call = ?
Result: active

Request: Entry NS(=O)(=O)c1ccc(CCNC(=O)/C=C/c2ccc(Cl)cc2)cc1 : call = ?
Result: inactive

Request: Entry NC1=NN=C2N(N)C(=O)c3cnn(-c4ccccc4)c3N2c2nc(-c3ccccc3)cc(-c3ccccc3)c21 : call = ?
Result: inactive

Request: Entry Cc1ccc(-c2ccc(/C=C(\C#N)c3nc(-c4ccco4)cs3)o2)cc1 : call = ?
Result: inactive

Request: Entry CCCCC[C@H]1CC=C2C(=O)C(Cl)=C[C@@H]2CC=CCCCC(=O)O[C@@H](CCCCC)CC=C2C(=O)C(Cl)=C[C@@H]2CC=CCCCC(=O)O[C@@H](CCCCC)CC=C2C(=O)C(Cl)=C[C@@H]2CC=CCCCC(=O)O1 : call = ?
Result: inactive

Request: Entry CC1(C)NCCC[C@]2(C)[C@H]3CC[C@@H]4[C@H]5[C@H](C(=O)/C=C/c6ccccn6)CC[C@]5(CO)CC[C@@]4(C)[C@]3(C)CC[C@@H]12 : call = ?
Result: inactive

###

# Tested on: NCI-H460 lung
# assayProtocol: NCI-60 one-dose screen, 48 h (100 = growth as untreated, 0 = no growth, -100 = all killed)
# conditionDescription: 10 µM unless noted
The panel holds about 83,000 compounds, 20% with a hit somewhere; the sample as a whole holds those more often.
Parameter: growth. Scope: all listed entries.
Numbers only; they are read as %.

{"compound": "OCC(CO)(CCl)CCl", "experimentalTarget": "NCI-H460 lung", "growth (%)": 106}

Here is the next item to consider.
Request: Please look up its growth: COc1ccc(NC(=S)N/N=C/c2ccccc2SSCCC(=O)OC[C@H]2O[C@H](O)[C@H](O)[C@@H](O)[C@@H]2O)cc1
Result: 26.6

###

# System: OVCAR-4 ovarian
# assayProtocol: NCI-60 one-dose screen, 48 h
# conditionDescription: 10 µM unless noted
Compounds without any hit were thinned out: in the full panel of roughly 83,000, 20% have a hit. Calls of active or inactive are those of the source. Rule for the calls: active = growth percent below 10; inactive = the rest.
In this exercise, the only acceptable responses are active, inactive

Record excerpt, results attached:
{"compound": "COC(=O)[C@]12CC[C@@H](C(C)=O)[C@@H]1[C@H]1CC[C@@H]3[C@@]4(C)C/C(=C/c5cccnc5)C(=O)C(C)(C)[C@@H]4CC[C@@]3(C)[C@]1(C)CC2", "experimentalTarget": "OVCAR-4 ovarian", "class": "inactive"}
{"compound": "Cc1ccc(S(=O)(=O)Nc2ccc(-c3cc(-c4cccc(F)c4)c(C#N)c(N)n3)cc2)cc1", "experimentalTarget": "OVCAR-4 ovarian", "class": "active"}
{"compound": "N#CC1=C(N)Oc2ccc3ccccc3c2C1c1ccccc1Cl (stereo unspecified)", "experimentalTarget": "OVCAR-4 ovarian", "class": "inactive"}
{"compound": "CN1CCN(CCOc2ccc(-c3cnc4c(-c5ccccc5F)cnn4c3)cc2)CC1", "experimentalTarget": "OVCAR-4 ovarian", "class": "inactive"}
{"compound": "C[C@@H]1CCCCCCCCC[C@H](O)C(=O)C[C@@H](SC[C@@H](O)C(=O)O)C(=O)O1", "experimentalTarget": "OVCAR-4 ovarian", "class": "inactive"}

Request: Entry COc1ccc2[nH]c(-c3ccc(Cl)cc3)cc(=O)c2c1 : call = ?
Result: inactive

Request: Entry COc1cc(-c2cc3cc(O)ccc3oc2=O)cc(OC)c1OC : call = ?
Result: inactive

Request: Entry Nc1c(C(=O)Nc2cccc3ccccc23)sc2nc3c(cc12)CCCC3 : call = ?
Result: inactive

###

# Test system: M14 melanoma
# assayProtocol: NCI-60 one-dose screen, 48 h
# conditionDescription: 10 µM unless noted
Compounds without any hit were thinned out: in the full panel of roughly 83,000, 20% have a hit. Active and inactive are the calls of the source. The calls were made as follows: active = growth percent below 10; inactive = the rest.
In this exercise, the only acceptable responses are T = active, F = inactive

{"molecule": "CC(=O)Cc1nsc(NC(=O)c2ccoc2COc2ccccc2)n1", "class": "F"}
{"molecule": "O=C(Nc1ccc(/C=C2\\SC(=O)N(Cc3ccc(OC(F)(F)F)cc3)C2=O)cc1)c1ccc(Cl)c([N+](=O)[O-])c1", "class": "F"}
{"molecule": "COc1cccc(-c2nn(-c3ccccc3)cc2-c2ccnc(NCCNS(=O)(=O)c3cccc(F)c3)c2)c1", "class": "F"}
{"molecule": "Clc1ccc2c(NCCNc3nc(-c4ccccc4)cc(-c4ccccc4)n3)ccnc2c1", "class": "T"}
{"molecule": "C[C@H]1OC(=O)/C=C/[C@@H](O)[C@@H](O)CCCCCCCC[C@@H]1O", "class": "F"}

Request: Entry COc1cccc(-c2nn(-c3ccccc3)cc2-c2ccnc(NCCCNS(=O)(=O)c3ccccc3)c2)c1 : call = ?
Result: F

Request: Entry CC(=O)OCCCCCCn1c2ccccc2c2c3c(c4c5ccccc5n(C)c4c21)C(=O)N(O)C3=O : call = ?
Result: F

Request: Entry OCC1OC(n2cnc3c(Cl)ncnc32)CC1O (centres undefined) : call = ?
Result: F

Request: Entry CCCCC/C(=C\c1ccccc1)C1OC(C)C(C)O1 (centres undefined) : call = ?
Result: F

###

# Tested on: NCI-H23 lung
# assayProtocol: NCI-60 one-dose screen, 48 h (100 = growth as untreated, 0 = no growth, -100 = all killed)
# conditionDescription: 10 µM unless noted
Compounds without any hit were thinned out: in the full panel of roughly 83,000, 20% have a hit.
Decide using growth: a value greater than or equal to 90% is t, a smaller one is f.

Record excerpt, results attached:
{"compound": "O=C1C(Cl)=C(Nc2ccc(S(=O)(=O)c3ccc(NC4=C(Cl)C(=O)c5ccccc5C4=O)cc3)cc2)C(=O)c2ccccc21", "experimentalTarget": "NCI-H23 lung", "class": "f"}
{"compound": "C=C(C)[C@@H]1CC[C@]2(c3nnc(-c4ccncc4)o3)CC[C@]3(C)[C@H](CC[C@@H]4[C@@]5(C)CCC(=O)NC(C)(C)[C@@H]5CC[C@]43C)[C@@H]12", "experimentalTarget": "NCI-H23 lung", "class": "t"}
{"compound": "COC(=O)[C@]12CC[C@@H](C)[C@H](C)[C@@H]1C1=CC[C@@H]3[C@@]4(C)C(c5ncon5)=C[C@@](C)(CO)C4=CC[C@@]3(C)[C@]1(C)CC2", "experimentalTarget": "NCI-H23 lung", "class": "f"}
{"compound": "CCNCCCn1c2c(c3ccc([N+](=O)[O-])cc3c1=O)C(=O)c1cc(OC)cnc1-2", "experimentalTarget": "NCI-H23 lung", "class": "f"}

Request: Could you please find out whether C/C(=N\NC(=O)C(C)SC(C)C(=O)N/N=C(\C)c1cccnc1)c1cccnc1 (stereo unspecified) has growth that meets 90% or exceeds it?
Result: t

The reported numbers originate from PubChem BioAssay (NCI).
